Target: recombinant full length human PDE1B (r-hPDE1B) (Homo sapiens (Human), UniProt Q01064)
Assay: PDE1 inhibition in vitro, IMAP phosphodiesterase assay (r-hPDE1B)
measuredParameter: pKi
# pKi is unitless: minus log10 of the molar concentration; print number only

// worked examples, pKi included
CC(=O)c1ccc(Cn2nc3c(c2Nc2ccc(F)c(C)c2)C(=O)N(C)C2=NC(C)(C)CN23)cc1 :: 9.40
CC(O)c1ccc(Cn2nc3c(c2Nc2ccc(F)cc2)C(=O)N(C)C2=NC(C)(C)CN23)cc1 (stereo not drawn) :: 8.40

So for CC(=O)c1ccc(Cn2nc3c(c2Nc2ccc(F)c(F)c2)C(=O)N(C)C2=NC(C)(C)CN23)cc1 , the logged pKi turned out to be 8.40

* * *

Biological target: recombinant full length human PDE1A (r-hPDE1A) (Homo sapiens (Human), UniProt P54750)
Test: PDE1 inhibition in vitro, IMAP phosphodiesterase assay (r-hPDE1A)
measuredParameter: Ki (nM)
Quick note: give the figure in nM, leave out the unit.

So for CC(=O)c1ccc(Cn2nc3c(c2Nc2ccc(F)c(C)c2)C(=O)N(C)C2=NC(C)(C)CN23)cc1 , the logged Ki turned out to be 0.1

So for CC(=O)c1ccc(Cn2nc3c(c2Nc2ccc(F)c(F)c2)C(=O)N(C)C2=NC(C)(C)CN23)cc1 , the logged Ki turned out to be 0.3

So for CC(O)c1ccc(Cn2nc3c(c2Nc2ccc(F)cc2)C(=O)N(C)C2=NC(C)(C)CN23)cc1 (stereo not drawn) , the logged Ki turned out to be 0.5

* * *

Test: Metabolism rates in human liver microsomes (stability)
Assay type: in vitro ADME
Settings: pooled human liver microsomes, pH 7.5, 0.5 mg/ml protein, 1 μM test compound, NADPH, 37° C., read-out: T1/2 in human liver microsomes
measuredParameter: half-life at 1 μM
Please append the unit to your numeric answer.

// worked examples, half-life at 1 μM included
CC(=O)c1ccc(Cn2nc3c(c2Nc2ccc(F)c(C)c2)C(=O)N(C)C2=NC(C)(C)CN23)cc1 :: 1.12 h
CC(=O)c1ccc(Cn2nc3c(c2Nc2ccc(F)c(F)c2)C(=O)N(C)C2=NC(C)(C)CN23)cc1 :: 1.3 h

So for CC(=O)c1ccc(Cn2nc3c(c2Nc2ccc(F)cc2)C(=O)N(C)C2=NC(C)(C)CN23)cc1 , the logged half-life at 1 μM turned out to be 2.85 h

The reported measurements were obtained from patent US9073936B2.
